study-target: Androgen receptor (Homo sapiens, UniProt P10275)
Sequence (P10275 whole entry): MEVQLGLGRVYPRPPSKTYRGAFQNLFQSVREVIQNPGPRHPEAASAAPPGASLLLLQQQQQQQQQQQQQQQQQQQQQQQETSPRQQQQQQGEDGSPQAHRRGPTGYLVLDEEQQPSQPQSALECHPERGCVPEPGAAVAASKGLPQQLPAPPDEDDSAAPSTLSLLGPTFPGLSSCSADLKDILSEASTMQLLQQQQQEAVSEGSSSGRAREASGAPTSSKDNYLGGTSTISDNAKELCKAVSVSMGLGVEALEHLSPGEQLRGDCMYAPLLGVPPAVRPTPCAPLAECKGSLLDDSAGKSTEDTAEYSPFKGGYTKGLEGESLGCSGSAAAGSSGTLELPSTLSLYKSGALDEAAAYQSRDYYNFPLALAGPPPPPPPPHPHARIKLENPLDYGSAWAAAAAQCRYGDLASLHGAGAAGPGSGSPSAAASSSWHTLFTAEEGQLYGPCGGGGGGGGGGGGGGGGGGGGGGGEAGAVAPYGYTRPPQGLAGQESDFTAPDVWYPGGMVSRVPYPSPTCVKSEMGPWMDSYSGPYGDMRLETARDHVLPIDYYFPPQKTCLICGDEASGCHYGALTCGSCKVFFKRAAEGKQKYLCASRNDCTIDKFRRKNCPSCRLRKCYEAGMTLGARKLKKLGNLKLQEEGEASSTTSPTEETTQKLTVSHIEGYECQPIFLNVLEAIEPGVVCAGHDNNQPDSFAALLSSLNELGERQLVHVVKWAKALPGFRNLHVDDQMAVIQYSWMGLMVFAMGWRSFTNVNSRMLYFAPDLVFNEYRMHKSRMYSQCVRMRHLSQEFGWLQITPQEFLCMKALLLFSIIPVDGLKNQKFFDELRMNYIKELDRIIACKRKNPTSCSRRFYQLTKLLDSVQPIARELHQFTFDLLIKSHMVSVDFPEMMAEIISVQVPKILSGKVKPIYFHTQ
experiment-summary: Antagonist activity at AR in human LNCAP cells assessed as reduction in DHT-induced transcriptional activation after 24 hrs by luciferase reporter gene assay
The entries below come with measured IC50 values attached.
The reply should be a number in nM, with the unit left off.

[
  {
    "compound": "O=C(/C=C/c1ccccc1O)c1cc(F)ccc1O",
    "IC50 [nM]": 1420
  }
]

// query Look up IC50: O=C(/C=C/c1ccccc1O)c1cc(Br)cc(Br)c1O
// result 2870

// query Now the compound CCCOc1ccccc1/C=C/C(=O)c1cc(Br)ccc1O
// result 3960

// query Here is the next compound: O=C(/C=C/c1ccc(O)cc1)c1cc(Cl)ccc1O
// result 5920

// query Ok, now COc1ccccc1/C=C/C(=O)c1cc(F)ccc1O
// result 5010

// query Please give the result for O=C(/C=C/c1ccccc1)c1cc(Cl)ccc1O too.
// result 1510

// query Thanks! And O=C1CC(c2ccccc2O)Oc2ccc(Cl)cc21 (configuration not stated) ?
// result 1680

// query Next record, please: COc1ccccc1/C=C/C(=O)c1ccccc1O
// result 3500

====

study-target: Androgen receptor (Homo sapiens, UniProt P10275)
experiment-summary: Antagonist activity at AR in human LNCAP cells assessed as reduction in DHT-induced transcriptional activation after 24 hrs by luciferase reporter gene assay
Format: cell-based
Documented pIC50 across a set of compounds
Recall that pIC50 is obtained by taking minus log10 of the concentration measured in molar.

Worked cases, answers included:
[
  {
    "compound": "O=C1CC(c2ccccc2O)Oc2ccc(Br)cc21 (configuration not stated)",
    "pIC50": 5.75
  },
  {
    "compound": "O=C1CC(c2ccccc2O)Oc2ccc(O)cc21 (configuration not stated)",
    "pIC50": 5.56
  },
  {
    "compound": "COc1ccccc1/C=C/C(=O)c1cc(I)ccc1O",
    "pIC50": 5.76
  }
]

Now for another entry.
// query Please report the recorded pIC50 for O=C(/C=C/c1ccccc1O)c1cc(Br)ccc1O .
// result 5.06
